Where do the numbers come from? From the supplement of paper PMC9233669.

- System: biotinyl-Met-oxazolone
- protocol.details: self-aminoacylation, catalytic enhancement (BMO) (fold over background); higher = more active; k-Seq, kA / k0A0; sequences stand for … in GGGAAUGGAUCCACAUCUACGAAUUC…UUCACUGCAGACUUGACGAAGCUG
Fewer inactive variants are shown than the library holds.
Reported values of self-aminoacylation for individual entries

>  <seq.text>
CCACACUUCCAGCAAUCGGUC [Fam1B.1 aminoacylation ribozyme variant]

>  <self-aminoacylation>
0.882

$$$$
>  <seq.text>
GCGUUUGCUAAUAGUCGCAAG [Fam3.1 aminoacylation ribozyme variant]

>  <self-aminoacylation>
2.34

$$$$
>  <seq.text>
AUUCCCCUAGGUCAGCGGGUG [Fam2.2 aminoacylation ribozyme variant]

>  <self-aminoacylation>
11.1

$$$$
>  <seq.text>
CUACUUCGAACAACCGGUCUG [Fam1A.1 aminoacylation ribozyme variant]

>  <self-aminoacylation>
0.734

$$$$
>  <seq.text>
CCACACUUUAAGCAAUAGGUC [Fam1B.1 aminoacylation ribozyme variant]

>  <self-aminoacylation>
0.592

$$$$
>  <seq.text>
AUUCACCUAGGUCAACGGGGG [Fam2.2 aminoacylation ribozyme variant]

>  <self-aminoacylation>
1.83

$$$$
>  <seq.text>
CCGCACUUCAAGCACUCGGUC [Fam1B.1 aminoacylation ribozyme variant]

>  <self-aminoacylation>
1.44

$$$$
>  <seq.text>
CCACACUUUAAACAAUCGGUC [Fam1B.1 aminoacylation ribozyme variant]

>  <self-aminoacylation>
0.633

$$$$
>  <seq.text>
CCACACUUCAAGCAUUUGGUC [Fam1B.1 aminoacylation ribozyme variant]

>  <self-aminoacylation>
0.691

$$$$
>  <seq.text>
AUUACCCUGGUCACGGAGUGA [Fam2.1 aminoacylation ribozyme variant]

>  <self-aminoacylation>
7.34

$$$$
>  <seq.text>
AAGUUUGCUAGUAAUCGCAAG [Fam3.1 aminoacylation ribozyme variant]

>  <self-aminoacylation>
0.789

$$$$
>  <seq.text>
AUUACCGUGGUCCUCGAGUGA [Fam2.1 aminoacylation ribozyme variant]

>  <self-aminoacylation>
4.11

$$$$
>  <seq.text>
AUUCACCUAGGUCGUCGAGUG [Fam2.2 aminoacylation ribozyme variant]

>  <self-aminoacylation>
0.743

$$$$
>  <seq.text>
AUACACCUAGGUCACCGGGUG [Fam2.2 aminoacylation ribozyme variant]

>  <self-aminoacylation>
3.09

$$$$
>  <seq.text>
AUUACUCUGGUCAUCGCGUGA [Fam2.1 aminoacylation ribozyme variant]

>  <self-aminoacylation>
16.4

$$$$
>  <seq.text>
UAGCUUGCUAAUAGUCGCAAG [Fam3.1 aminoacylation ribozyme variant]

>  <self-aminoacylation>
1.88

$$$$
>  <seq.text>
AUUACCCUGGUCAUCCAGGGA [Fam2.1 aminoacylation ribozyme variant]

>  <self-aminoacylation>
2.82

$$$$
>  <seq.text>
AAGUUUGCUAACAGUCACAAG [Fam3.1 aminoacylation ribozyme variant]

>  <self-aminoacylation>
1.04

$$$$
>  <seq.text>
AUUCACCCAGGUCAUCGGGCG [Fam2.2 aminoacylation ribozyme variant]

>  <self-aminoacylation>
3.77

$$$$
>  <seq.text>
GUUCACCUAGGCCAUCGGGUG [Fam2.2 aminoacylation ribozyme variant]

>  <self-aminoacylation>
3.77

$$$$
>  <seq.text>
CUAGUUCAAACACUCGGUCUG [Fam1A.1 aminoacylation ribozyme variant]

>  <self-aminoacylation>
1.46

$$$$
>  <seq.text>
CCGCACUUCAAGCAUUCGGUC [Fam1B.1 aminoacylation ribozyme variant]

>  <self-aminoacylation>
1.85

$$$$
>  <seq.text>
CUACUUCAAACACUCGGCCUG [Fam1A.1 aminoacylation ribozyme variant]

>  <self-aminoacylation>
1.59

$$$$
>  <seq.text>
AAGUUAGCUAAUAGUCGCCAG [Fam3.1 aminoacylation ribozyme variant]

>  <self-aminoacylation>
2.09

$$$$
>  <seq.text>
CGACUUCAAACAAUCGGUCUC [Fam1A.1 aminoacylation ribozyme variant]

>  <self-aminoacylation>
1.59

$$$$
>  <seq.text>
CUACUUCAAGCAAUCGGUGUG [Fam1A.1 aminoacylation ribozyme variant]

>  <self-aminoacylation>
1.59

$$$$
>  <seq.text>
AUUACCCUGUUAAUCGAGUGA [Fam2.1 aminoacylation ribozyme variant]

>  <self-aminoacylation>
9.91

$$$$
>  <seq.text>
AUACUUCAAACAAUCCGUCUG [Fam1A.1 aminoacylation ribozyme variant]

>  <self-aminoacylation>
1.05

$$$$
>  <seq.text>
AAGUUUGCGAAUAGUCCCAAG [Fam3.1 aminoacylation ribozyme variant]

>  <self-aminoacylation>
1.14

$$$$
>  <seq.text>
AUUCCCUUGGUCAUCGAGUGA [Fam2.1 aminoacylation ribozyme variant]

>  <self-aminoacylation>
11.8

$$$$
>  <seq.text>
GUUACACUGGUCAUCGAGUGA [Fam2.1 aminoacylation ribozyme variant]

>  <self-aminoacylation>
6.79

$$$$
>  <seq.text>
AUUCUCCUAUGUCAUCGGGUG [Fam2.2 aminoacylation ribozyme variant]

>  <self-aminoacylation>
9.01

$$$$
>  <seq.text>
ACUGCCCUGGUCAUCGAGUGA [Fam2.1 aminoacylation ribozyme variant]

>  <self-aminoacylation>
36

$$$$
>  <seq.text>
AUUCACCUAGGUAAUUGGGUG [Fam2.2 aminoacylation ribozyme variant]

>  <self-aminoacylation>
4.54

$$$$
>  <seq.text>
CUACUUCACACAAUCGGCCUG [Fam1A.1 aminoacylation ribozyme variant]

>  <self-aminoacylation>
1.75

$$$$

----------
- Test system: biotinyl-Ile-oxazolone
- protocol.details: self-aminoacylation, catalytic enhancement (BIO) (fold over background); higher = more active; k-Seq, kA / k0A0; sequences stand for … in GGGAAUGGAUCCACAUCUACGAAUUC…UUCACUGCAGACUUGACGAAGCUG
Variants at the floor of the assay were thinned out.

>  <seq.text>
CAGUUUGCUAAUAGUUGCAAG [Fam3.1 aminoacylation ribozyme variant]

>  <self-aminoacylation>
1.53

$$$$
>  <seq.text>
CCUCAGUUCAAGCAAUCGGUC [Fam1B.1 aminoacylation ribozyme variant]

>  <self-aminoacylation>
1.12

$$$$
>  <seq.text>
AUUACCCUGGCCCUCGAGUGA [Fam2.1 aminoacylation ribozyme variant]

>  <self-aminoacylation>
2.5

$$$$
>  <seq.text>
CCACACUUCGAGUAAUCGGUC [Fam1B.1 aminoacylation ribozyme variant]

>  <self-aminoacylation>
0.822

$$$$
>  <seq.text>
AAGUUCGAUAAUAGUCGCAAG [Fam3.1 aminoacylation ribozyme variant]

>  <self-aminoacylation>
1.44

$$$$
>  <seq.text>
CUACCUCAAAUAAUCGGUCUG [Fam1A.1 aminoacylation ribozyme variant]

>  <self-aminoacylation>
1.05

$$$$
>  <seq.text>
AUUCACCAAGGUCAUGGGGUG [Fam2.2 aminoacylation ribozyme variant]

>  <self-aminoacylation>
6.16

$$$$
>  <seq.text>
CCACUUCCAACAAUCGGUCUG [Fam1A.1 aminoacylation ribozyme variant]

>  <self-aminoacylation>
0.991

$$$$
>  <seq.text>
CCACACUUCAAUCAACCGGUC [Fam1B.1 aminoacylation ribozyme variant]

>  <self-aminoacylation>
0.862

$$$$
>  <seq.text>
UUACUUCAAACAAUCGCUCUG [Fam1A.1 aminoacylation ribozyme variant]

>  <self-aminoacylation>
1.21

$$$$
>  <seq.text>
AUUACCCUUGUCAUCUAGUGA [Fam2.1 aminoacylation ribozyme variant]

>  <self-aminoacylation>
3.76

$$$$
>  <seq.text>
AAGUUUGCUAAUAUUCGCAAU [Fam3.1 aminoacylation ribozyme variant]

>  <self-aminoacylation>
1.31

$$$$
>  <seq.text>
CUACUUCAAACACUCGGUCUC [Fam1A.1 aminoacylation ribozyme variant]

>  <self-aminoacylation>
0.998

$$$$
>  <seq.text>
AUUCAUCGAGGUCAUCGGGUG [Fam2.2 aminoacylation ribozyme variant]

>  <self-aminoacylation>
7.05

$$$$
>  <seq.text>
AAGUUUGUUAGUAGUCGCAAG [Fam3.1 aminoacylation ribozyme variant]

>  <self-aminoacylation>
0.852

$$$$
>  <seq.text>
AAGUUUGCGAAUAGUCCCAAG [Fam3.1 aminoacylation ribozyme variant]

>  <self-aminoacylation>
1.06

$$$$
>  <seq.text>
UUACUUCAAACAACCGGUCUG [Fam1A.1 aminoacylation ribozyme variant]

>  <self-aminoacylation>
1.36

$$$$
>  <seq.text>
UUUCACCGAGGUCAUCGGGUG [Fam2.2 aminoacylation ribozyme variant]

>  <self-aminoacylation>
4.52

$$$$

----------
- System: biotinyl-Leu-oxazolone
- protocol.details: self-aminoacylation, catalytic enhancement (BLO) (fold over background); higher = more active; k-Seq, kA / k0A0; sequences stand for … in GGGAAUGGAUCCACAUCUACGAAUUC…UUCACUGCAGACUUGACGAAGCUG
Fewer inactive variants are shown than the library holds.
# binarize self-aminoacylation: threshold 1 inclusive, high side Satisfied, low side Not satisfied

>  <seq.text>
CGACACUACAAGCAAUCGGUC [Fam1B.1 aminoacylation ribozyme variant]

>  <assigned.category>
Not satisfied

$$$$
>  <seq.text>
AAUUUUGCAAAUAGUCGCAAG [Fam3.1 aminoacylation ribozyme variant]

>  <assigned.category>
Satisfied

$$$$
>  <seq.text>
AAGUUUGCUAAUAGUCGCUAG [Fam3.1 aminoacylation ribozyme variant]

>  <assigned.category>
Not satisfied

$$$$
>  <seq.text>
AUGUUUGCUAAUAGUCGCAAC [Fam3.1 aminoacylation ribozyme variant]

>  <assigned.category>
Satisfied

$$$$
>  <seq.text>
CUACUCUUCAAGCAAUCGGUC [Fam1B.1 aminoacylation ribozyme variant]

>  <assigned.category>
Satisfied

$$$$
>  <seq.text>
AUUCCCCUAGGUCAUCAGGUG [Fam2.2 aminoacylation ribozyme variant]

>  <assigned.category>
Satisfied

$$$$
>  <seq.text>
AUUCACCCAGGUCAGCGGGUG [Fam2.2 aminoacylation ribozyme variant]

>  <assigned.category>
Satisfied

$$$$
>  <seq.text>
AUUACUCUGGUCAUCGAGUGC [Fam2.1 aminoacylation ribozyme variant]

>  <assigned.category>
Satisfied

$$$$
>  <seq.text>
AAGUUUGCUUAUAGUCGCGAG [Fam3.1 aminoacylation ribozyme variant]

>  <assigned.category>
Not satisfied

$$$$
